# studySystem: 5-hydroxytryptamine receptor 2C (Homo sapiens, UniProt P28335)
# Sequence (P28335 whole entry): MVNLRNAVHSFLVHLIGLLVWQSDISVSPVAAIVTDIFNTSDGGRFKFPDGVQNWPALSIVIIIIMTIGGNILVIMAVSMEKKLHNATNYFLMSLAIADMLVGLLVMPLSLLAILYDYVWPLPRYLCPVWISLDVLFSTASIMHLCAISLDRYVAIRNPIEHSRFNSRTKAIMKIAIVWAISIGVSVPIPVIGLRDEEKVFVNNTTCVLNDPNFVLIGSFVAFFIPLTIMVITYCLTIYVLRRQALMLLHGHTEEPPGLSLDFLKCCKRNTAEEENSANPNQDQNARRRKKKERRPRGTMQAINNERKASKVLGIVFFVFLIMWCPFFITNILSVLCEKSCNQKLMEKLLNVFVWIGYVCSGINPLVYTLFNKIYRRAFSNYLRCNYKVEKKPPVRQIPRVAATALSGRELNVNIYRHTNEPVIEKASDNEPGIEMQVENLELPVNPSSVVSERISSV
# experimentSummary: Displacement of [3H]mesulergine from human 5-HT2C receptor expressed in human tsA201 cells after 1 hr by scintillation counting analysis
# Assay type: cell-based
reportedProperty: pKi
Keep it numeric: pKi is minus log10 of the concentration in mol/L.

In the examples that follow, each entry is paired with its recorded pKi.
> print(dat)
                                   compound  readoutnumber
1  O=S(=O)(c1ccccc1)n1cc2c3c(cccc31)N1CCNCC1C2 (stereo not drawn)           6.55
2  Cc1cccc(S(=O)(=O)n2cc3c4c(cccc42)N2CCNCC2C3)c1 (stereo not drawn)           6.34
3  O=S(=O)(c1ccccc1Cl)n1cc2c3c(cccc31)N1CCNCC1C2 (stereo not drawn)           6.34
4  O=S(=O)(c1ccccc1F)n1cc2c3c(cccc31)N1CCNCC1C2 (stereo not drawn)           6.46
5  COc1cccc(S(=O)(=O)n2cc3c4c(cccc42)N2CCNCC2C3)c1 (stereo not drawn)           6.43
6  O=S(=O)(c1ccc(Cl)cc1)n1cc2c3c(cccc31)N1CCNCC1C2 (stereo not drawn)           5.92

### Prompt Entry O=S(=O)(c1cccc(F)c1)n1cc2c3c(cccc31)N1CCNCC1C2 (stereo not drawn) needs its pKi filled in; supply it.
### Response 6.62

### Prompt # return recorded pKi for entry O=S(=O)(c1cccc(Cl)c1)n1cc2c3c(cccc31)N1CCNCC1C2 (stereo not drawn)
### Response 6.47

### Prompt Give pKi for the following compound: COc1ccccc1S(=O)(=O)n1cc2c3c(cccc31)N1CCNCC1C2 (stereo not drawn)
### Response 6.06

### Prompt Kindly indicate its recorded pKi. Item: Cc1ccc(S(=O)(=O)n2cc3c4c(cccc42)N2CCNCC2C3)cc1 (stereo not drawn)
### Response 6.11

### Prompt Determine its reported pKi: O=S(=O)(c1ccc(F)cc1)n1cc2c3c(cccc31)N1CCNCC1C2 (stereo not drawn)
### Response 5.96

### Prompt Look up and report measured pKi for this entry: COc1ccc(S(=O)(=O)n2cc3c4c(cccc42)N2CCNCC2C3)cc1 (stereo not drawn)
### Response 5.54

### Prompt State its pKi for this compound: Cc1ccccc1S(=O)(=O)n1cc2c3c(cccc31)N1CCNCC1C2 (stereo not drawn)
### Response 6.33
